assayed-target: T1, His9G-tagged human CD27 recombinant protein (human, UniProt P26842 21-191)
T1 construct: In-house, transient transfection of HEK293 cells; also called Human CD27/His
protocol: SPR Biacore 4000, antibody captured on anti-human Fc, His9G-tagged CD27 injected, 1:1 fit;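 further: Double-referenced SPR (blank anti-Fc surface and buffer injection subtracted), KD derived from association and dissociation rate constants, with human and cynomolgus CD27 as analytes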
measured-property: pKd
As a rule, pKd stands for the negative log10 of the concentration, concentration in M.

Reference set, count: 2
>  <binder>
131A chimera huIgG4 (antibody, V domains shown, also called chimeric mouse-human hCD27.131A huIgG4) VH: QIQLVQSGPELKKPGETVKISCKASGYTFTNYGMNWVKQAPGKGLKWMGWINTNTGEPTYAEEFKGRFAFSLETSATTAYLQINNLKNEDTATYFCAREGDAMDYWGQGTSVTVSS VL: QIVLTQSPAIMSASPGEKVTMTCSASSSVSYMHWYQQKSGTSPKRWIYDTSKLASGVPARFSGSGSGTSYSLTISSMEAEDAATYYCQQWNSYPFTFGSGTKLEIK

>  <measured-property>
pKd

>  <measured>
7.36

$$$$
>  <binder>
hCD27.131A VH8VL8 huIgG4 (antibody, V domains shown) VH: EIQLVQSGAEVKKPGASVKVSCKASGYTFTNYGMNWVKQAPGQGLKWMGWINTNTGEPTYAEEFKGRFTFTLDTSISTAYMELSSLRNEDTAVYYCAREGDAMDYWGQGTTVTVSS VL: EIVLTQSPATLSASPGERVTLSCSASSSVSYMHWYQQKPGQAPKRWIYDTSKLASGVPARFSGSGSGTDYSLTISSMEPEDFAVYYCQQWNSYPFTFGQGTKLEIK

>  <measured-property>
pKd

>  <measured>
6.96

$$$$

Next binder, pKd to be filled in.
Q) Recorded pKd for hCD27.131A VH6VL8 huIgG1 (antibody, V domains shown) VH: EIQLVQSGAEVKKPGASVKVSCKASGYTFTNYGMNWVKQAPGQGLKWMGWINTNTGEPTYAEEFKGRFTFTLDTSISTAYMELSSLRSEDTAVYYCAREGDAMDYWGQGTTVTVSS VL: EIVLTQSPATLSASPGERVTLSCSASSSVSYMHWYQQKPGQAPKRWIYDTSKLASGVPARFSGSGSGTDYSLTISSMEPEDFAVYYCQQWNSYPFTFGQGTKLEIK , please?
A) 7.17

Hey, just so you know, these numbers are from patent US20180086841A1.
